ASSAY_TARGET: MRGPRX4 (Homo sapiens, UniProt Q96LA9)
Sequence (Q96LA9 whole entry): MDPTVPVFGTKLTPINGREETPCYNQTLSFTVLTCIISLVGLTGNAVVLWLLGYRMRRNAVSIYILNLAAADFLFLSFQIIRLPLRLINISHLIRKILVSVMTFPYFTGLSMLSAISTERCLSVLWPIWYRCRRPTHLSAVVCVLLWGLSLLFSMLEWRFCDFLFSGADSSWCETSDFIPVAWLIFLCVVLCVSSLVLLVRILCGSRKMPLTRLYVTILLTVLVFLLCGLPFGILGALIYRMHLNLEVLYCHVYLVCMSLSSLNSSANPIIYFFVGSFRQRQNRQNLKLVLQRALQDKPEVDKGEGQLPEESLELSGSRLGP
ASSAY: MRGPRX4 activation, Fluo-8 Ca2+ FLIPR assay in HEK293T cells stably expressing MRGPRX4
Type: cell-based
RECORDED_CONDITIONS: Conc. (Log[M]) −9
Classify as follows. Reported MRGPRX4 activation, fluorescence change (dF/F0), Average greater than or equal to -0.05: T. Reported MRGPRX4 activation, fluorescence change (dF/F0), Average below: F.

COMPOUND	GROUP
C[C@H](CCC(C)(C)O)[C@H]1CC[C@H]2[C@@H]3CC[C@@H]4CCCC[C@]4(C)[C@H]3CC[C@]12C [2-3]	T
CC[C@H]1[C@@H](O)[C@@H]2[C@H](CC[C@]3(C)[C@@H]([C@H](C)CCC(=O)OC)CC[C@@H]23)[C@@]2(C)CCCC[C@@H]12 [1-4]	T
CC[C@H]1[C@@H](OC(=O)c2cccc(I)c2)[C@@H]2[C@H](CC[C@@]3(C)[C@H]2CC[C@]3(Cl)[C@H](C)CCC(=O)OC)[C@@]2(C)CCCC[C@@H]12 [1-6]	T
C[C@H](CCCO)[C@H]1CC[C@H]2[C@@H]3CC[C@@H]4CCCC[C@]4(C)[C@H]3CC[C@]12C [compound 77]	T
CC[C@H]1[C@@H](O)[C@@H]2[C@H](CC[C@]3(C)[C@@H]([C@H](C)CC(=O)O)CC[C@@H]23)[C@@]2(C)CCCC[C@@H]12 [compound 26]	F
CC[C@H]1[C@@H](O)[C@@H]2[C@H](CC[C@]3(C)[C@@H]([C@H](C)CCC(=O)O)CC[C@@H]23)[C@@]2(C)CCCC[C@@H]12 [compound 10]	T
